Measured values drawn from ChEMBL document CHEMBL1146109 for this set.

Organism: Homo sapiens
Experiment: Selectivity for plasma kallikrein over trypsin
Format: cell-free
test readout: Selectivity ratio

**Q:** Query (compound): N=C(N)c1ccc2[nH]c(-c3cc(C(CC(=O)O)C(=O)O)cc(-c4cccc(O)c4)c3O)nc2c1 (centres undefined) ; field requested: Selectivity ratio
**A:** 2900

**Q:** Query (compound): N=C(N)c1ccc2[nH]c(-c3cc(C(CC(=O)O)C(=O)O)cc(-c4ccc(O)cc4)c3O)nc2c1 (centres undefined) ; field requested: Selectivity ratio
**A:** 135

**Q:** Query (compound): N=C(N)c1ccc2[nH]c(-c3cc(C(CC(=O)O)C(=O)O)cc(-c4ccccc4F)c3O)nc2c1 (centres undefined) ; field requested: Selectivity ratio
**A:** 500

**Q:** Query (compound): N=C(N)c1ccc2[nH]c(-c3cc(C(CC(=O)O)C(=O)O)cc(-c4ccccc4O)c3O)nc2c1 (centres undefined) ; field requested: Selectivity ratio
**A:** 1080
